- System Name: T1, human α-CGRP (Homo sapiens, UniProt P06881)
- T1 construct: 1-37 (WT); purchased; host or cells: synthetic peptide
- T1 sequence (P06881 83-119 limits assumed): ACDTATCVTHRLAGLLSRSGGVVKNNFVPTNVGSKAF
- Protocol Notes: Biacore affinity of antibody G1 Fab and variants to human α-CGRP
- Type: binding
- Setup Conditions: 37° C., Fab, screening mode unless underlined
Measure: α-human koff (s⁻¹)
Lab book: enter the figure in s⁻¹, no units written.

{"columns": ["Molecule", "Measure Unit", "α-human koff"],
 "data": [
  ["M54: G1 variant: L1 R28N,T30A; L2 G50A; H2 E54K,A57N,S58P; HC-FW3 L99T,A100V (antibody, V domains shown) VH: EVQLVESGGGLVQPGGSLRLSCAASGFTFSNYWISWVRQAPGKGLEWVAEIRSKSDNPATHYAEAVKGRFTISRDNAKNSLYLQMNSLRAEDTAVYYCTVYFDYGLAIQNYWGQGTLVTVSS VL: EIVLTQSPATLSLSPGERATLSCKASKNVATYVSWYQQKPGQAPRLLIYAASNRYLGIPARFSGSGSGTDFTLTISSLEPEDFAVYYCSQSYNYPYTFGQGTKLEIK", "s⁻¹", 0.00179]
]}

Inquiry: Give the measured α-human koff of M30: G1 variant: L1 R28N,T30G; H2 E54K,A57E; HC-FW3 L99T,A100V (antibody, V domains shown) VH: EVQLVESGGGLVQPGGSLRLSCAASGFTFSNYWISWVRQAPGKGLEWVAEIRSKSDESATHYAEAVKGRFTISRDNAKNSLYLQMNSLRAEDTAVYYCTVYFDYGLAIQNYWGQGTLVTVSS VL: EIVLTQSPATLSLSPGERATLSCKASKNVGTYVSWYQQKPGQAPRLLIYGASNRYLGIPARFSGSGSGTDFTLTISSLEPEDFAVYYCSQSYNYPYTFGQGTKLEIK .
Reply text: 0.00059
